test system: SK-MEL-2; assay: NCI tumour cell line growth inhibition, 48 h
Activity calls are given as the source filed them. Rule as the data show it: active = GI50 up to about 1.1 µM and inactive = higher.
Hi there, I'd appreciate the recorded GI50 for every entry that follows.

IN: In one line, give reported GI50 of the entry CC/C(C)=C1\CCC(CN2CCOCC2)C1=O (stereo unspecified) .
OUT: 17.8 µM (inactive)

IN: In one line, give reported GI50 of the entry `O=C(CCN1CCOCC1)C(=Cc1ccccc1)C(=O)CCN1CCOCC1` .
OUT: 8.34 µM (inactive)

IN: In one line, give reported GI50 of the entry `O=Cc1cc([N+](=O)[O-])no1` .
OUT: 24.4 µM (inactive)

IN: In one line, give reported GI50 of the entry `CC(=O)n1nc(-c2nc3ccccc3nc2Cl)cc1Cl` .
OUT: 25.6 µM (inactive)

IN: In one line, give reported GI50 of the entry `COC(=O)N/N=C(\C)c1sc(-c2nc(C)c(/C(C)=N/NC(=O)OC)s2)nc1C` .
OUT: > 100 µM (inactive)

IN: In one line, give reported GI50 of the entry CCCCS(=O)(=O)CCC(N)P(=O)(O)O (stereo unspecified) .
OUT: > 100 µM (inactive)

====

Hi there, I'd appreciate the recorded GI50 for every entry that follows.
test system: SK-MEL-5; test: NCI tumour cell line growth inhibition, 48 h
Calls of active or inactive are those of the source. Rule as the data show it: active = GI50 up to about 1.1 µM and inactive = higher.

IN: In one line, give reported GI50 of the entry `O=c1c(-c2nc3ccccc3c3ccccc3c2=O)nc2ccccc2c2ccccc12` .
OUT: 24.8 µM (inactive)

IN: In one line, give reported GI50 of the entry CCN(CC)CC(O)CNc1ccc(NCC(O)CCl)c2c1C(=O)c1ccccc1C2=O (configuration not stated) .
OUT: 7.48 µM (inactive)

IN: In one line, give reported GI50 of the entry `Cc1c(/C=N/NC(=S)Nc2ccccc2)c(=O)n(-c2ccccc2)n1C` .
OUT: > 100 µM (inactive)

IN: In one line, give reported GI50 of the entry `Cc1ccc(S(=O)(=O)N/N=C/C2(c3ccccc3)c3ccccc3-c3ccccc32)cc1` .
OUT: 11.6 µM (inactive)

IN: In one line, give reported GI50 of the entry COC(=O)c1ccc(C)cc1C1CN=NC12Cc1cc(C)c(C)cc1C2=O (configuration not stated) .
OUT: 14.9 µM (inactive)

IN: In one line, give reported GI50 of the entry `CCOc1cc(C=O)c2c(ccc3ccc(OC)c(OC)c32)c1OC` .
OUT: 52.4 µM (inactive)

IN: In one line, give reported GI50 of the entry CCCCCCCCCCCCCCCCCCNc1nc(=O)n(C2CC(O)C(COP(=O)(O)OCC3OC(n4ccc(N)nc4=O)C(O)C3O)O2)cc1F (configuration not stated) .
OUT: > 100 µM (inactive)

IN: In one line, give reported GI50 of the entry `O=c1ccn(CC2(CO)CCCC2)c(=O)[nH]1` .
OUT: > 100 µM (inactive)

IN: In one line, give reported GI50 of the entry COc1nc(=O)n(C2CC(F)C(CO)O2)cc1C (configuration not stated) .
OUT: > 100 µM (inactive)

IN: In one line, give reported GI50 of the entry `COc1cc(O)c2c(=O)c(OC)c(-c3ccc(OC)c(O)c3)oc2c1` .
OUT: 20.4 µM (inactive)

IN: In one line, give reported GI50 of the entry `O=c1c2ccc3cccc4c(=O)cc(c5ccccc15)-c2c34` .
OUT: 57.4 µM (inactive)

IN: In one line, give reported GI50 of the entry C=C1C(=O)C2(C)OC2(C)C1C(=O)O (configuration not stated) .
OUT: > 100 µM (inactive)

IN: In one line, give reported GI50 of the entry `O=C(NC(Nc1ccc(F)cc1)(C(F)(F)F)C(F)(F)F)C(C(F)(F)F)C(F)(F)F` .
OUT: 1.43 µM (inactive)

IN: In one line, give reported GI50 of the entry `O=c1cc(/N=N/c2ccc(O)cc2)[nH]c(=O)[nH]1` .
OUT: > 100 µM (inactive)

IN: In one line, give reported GI50 of the entry `CCOC(=O)C(=O)/C(=C/N1C(=O)CC(=O)NC1=S)C(=O)OCC` .
OUT: > 100 µM (inactive)

IN: In one line, give reported GI50 of the entry `COc1cc(C)c2c(c1)CN1CN2Cc2cc(OC)cc(C)c21` .
OUT: 3.66 µM (inactive)

IN: In one line, give reported GI50 of the entry `CC(C)NCCCNc1c2ccccc2nc2cccc([N+](=O)[O-])c12` .
OUT: 0.00354 µM (active)

IN: In one line, give reported GI50 of the entry C#CCNC(=O)NCCCCC(NC(C)=O)C(=O)NCc1ccccc1 (configuration not stated) .
OUT: > 100 µM (inactive)

IN: In one line, give reported GI50 of the entry CN(C)CCNC(=O)c1cccc2c(NC(CS)C(=O)O)c3ccccc3nc12 (configuration not stated) .
OUT: 3.07 µM (inactive)

IN: In one line, give reported GI50 of the entry `CCN(CC)c1ccc(/C=C(\C#N)c2nc(N)nc(N3N=C(C)CC3(C)C)n2)cc1` .
OUT: 21.6 µM (inactive)

IN: In one line, give reported GI50 of the entry CC/C(C)=C1\CCC(CN2CCOCC2)C1=O (configuration not stated) .
OUT: 28.5 µM (inactive)

IN: In one line, give reported GI50 of the entry `N#Cc1nn(C(N)=O)c(N)c1C#N` .
OUT: > 100 µM (inactive)

IN: In one line, give reported GI50 of the entry `NNc1nncn1N` .
OUT: > 100 µM (inactive)

IN: In one line, give reported GI50 of the entry `CCn1c2ccccc2n2c(=O)c3c(c(C#N)c12)CCCC3` .
OUT: > 100 µM (inactive)

IN: In one line, give reported GI50 of the entry `C(CCc1nnc2c(n1)CCCC2)Cc1nnc2c(n1)CCCC2` .
OUT: > 100 µM (inactive)

IN: In one line, give reported GI50 of the entry `O=C(O)COc1c(Cl)cc(Cl)c(C(c2c(Cl)cc(Cl)c(OCC(=O)O)c2Cl)C(Cl)(Cl)Cl)c1Cl` .
OUT: 18.5 µM (inactive)

IN: In one line, give reported GI50 of the entry `Nc1nc(NNc2ccc(Cl)c(Cl)c2)cc(=O)[nH]1` .
OUT: 33.4 µM (inactive)

IN: In one line, give reported GI50 of the entry CNC1C(O)C(OC2C(N)CC(N)C(OC3OC(C(C)O)C(O)C(O)C3N)C2O)OCC1(C)O (configuration not stated) .
OUT: > 100 µM (inactive)

IN: In one line, give reported GI50 of the entry `CC1=Cc2ccc(C)cc2C(=O)C1=O` .
OUT: 20.4 µM (inactive)

IN: In one line, give reported GI50 of the entry `O=C1/C(=C/c2ccccc2)CCc2ccc(Cl)nc21` .
OUT: 5.31 µM (inactive)

IN: In one line, give reported GI50 of the entry CN1C(c2ccccc2)CC(=Nc2ccccc2)CC1c1ccccc1 (configuration not stated) .
OUT: 10.9 µM (inactive)

IN: In one line, give reported GI50 of the entry `CC(C)=NNc1cnnc2ccc([N+](=O)[O-])cc12` .
OUT: 55.3 µM (inactive)

IN: In one line, give reported GI50 of the entry `CC1=C(N2CC2)C(=O)C(CO)=C(N2CC2)C1=O` .
OUT: 0.0279 µM (active)

IN: In one line, give reported GI50 of the entry `CCC/C(=N\NC(=S)N1CC2CCC(CC2)C1)c1ccccn1` .
OUT: 0.117 µM (active)

IN: In one line, give reported GI50 of the entry C=CCC1(OC(C)=O)C2OC(=O)C1(O)OCC2O (configuration not stated) .
OUT: > 100 µM (inactive)

IN: In one line, give reported GI50 of the entry `O=C1c2ccccc2C(=O)N1CCn1ccc(NC(c2ccccc2)(c2ccccc2)c2ccccc2)nc1=O` .
OUT: 17.5 µM (inactive)

IN: In one line, give reported GI50 of the entry `Cc1ccc(NC(=O)CC(=O)n2nc(C)c(/N=N/c3ccc(S(=O)(=O)CCOS(=O)(=O)O)cc3)c2C)cc1` .
OUT: > 100 µM (inactive)

IN: In one line, give reported GI50 of the entry CN(C)/C=N/c1nc2c(ncn2C2OC(CO)C(O)C2O)c(=O)[nH]1 (configuration not stated) .
OUT: > 100 µM (inactive)

IN: In one line, give reported GI50 of the entry `C/C=C/CC(S(=O)(=O)c1ccccc1)S(=O)(=O)c1ccccc1` .
OUT: > 100 µM (inactive)

IN: In one line, give reported GI50 of the entry `NC(=O)c1ncn(CCN2CCN(C(=O)NCCCCCCNC(=O)N3CCN(CCn4cnc(C(N)=O)c4N)CC3)CC2)c1N` .
OUT: > 100 µM (inactive)

IN: In one line, give reported GI50 of the entry COC(C)(C)[C@@H](O)[C@H]1C[C@H](C)[C@@]2(CC[C@]3(C)[C@@H]2CC[C@@H]2[C@@]4(C)CC[C@@H](OC(C)=O)C(C)(C)[C@@H]4C[C@@H](OC4OC(COC(C)=O)C(O)C(O)C4O)[C@]23C)O1 (some centres not stated) .
OUT: 6.53 µM (inactive)

IN: In one line, give reported GI50 of the entry `NC(=O)NC(=O)c1cccc(NC(=O)CCl)c1` .
OUT: 0.71 µM (active)
